# assay.system: anti-CC49 variable region antibodies in the serum of patient one
# assay.text: HPLC, 125I-HuCC49 + serum + 5 Tg competitor; fewer complexes = competitor bound
percent of complexes reference
measurement.kind: percent of complexes (%)

>>> data_value("HuCC49 CDR variant L-3 (antibody, V domains shown) VH: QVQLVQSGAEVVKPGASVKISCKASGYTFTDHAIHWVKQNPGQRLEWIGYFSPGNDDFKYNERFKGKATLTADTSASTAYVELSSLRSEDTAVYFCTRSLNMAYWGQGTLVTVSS VL: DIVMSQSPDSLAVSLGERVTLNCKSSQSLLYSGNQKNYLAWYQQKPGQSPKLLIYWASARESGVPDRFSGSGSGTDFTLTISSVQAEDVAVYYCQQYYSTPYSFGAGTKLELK")
34.8
>>> data_value("HuCC49 CDR variant L-1 (antibody, V domains shown) VH: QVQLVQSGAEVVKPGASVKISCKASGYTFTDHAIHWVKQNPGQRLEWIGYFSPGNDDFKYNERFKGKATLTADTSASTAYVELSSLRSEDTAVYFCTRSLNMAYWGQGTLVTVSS VL: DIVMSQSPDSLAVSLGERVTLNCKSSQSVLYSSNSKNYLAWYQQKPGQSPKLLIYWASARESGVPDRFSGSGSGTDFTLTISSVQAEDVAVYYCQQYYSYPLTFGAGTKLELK")
16
>>> data_value("HuCC49 CDR variant L-1,2 (antibody, V domains shown) VH: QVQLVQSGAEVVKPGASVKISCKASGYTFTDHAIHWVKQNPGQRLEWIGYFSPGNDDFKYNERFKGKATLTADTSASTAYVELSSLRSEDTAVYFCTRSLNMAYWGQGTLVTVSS VL: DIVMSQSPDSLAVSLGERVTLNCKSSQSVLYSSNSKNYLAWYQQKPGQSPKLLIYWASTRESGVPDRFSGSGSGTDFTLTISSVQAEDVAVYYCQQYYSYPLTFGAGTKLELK")
24.6
>>> data_value("HuCC49 CDR variant L-2 (antibody, V domains shown) VH: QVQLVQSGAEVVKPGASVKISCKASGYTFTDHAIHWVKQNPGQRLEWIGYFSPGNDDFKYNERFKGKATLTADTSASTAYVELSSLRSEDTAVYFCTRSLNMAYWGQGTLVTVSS VL: DIVMSQSPDSLAVSLGERVTLNCKSSQSLLYSGNQKNYLAWYQQKPGQSPKLLIYWASTRESGVPDRFSGSGSGTDFTLTISSVQAEDVAVYYCQQYYSYPLTFGAGTKLELK")
2.7
>>> data_value("HuCC49 CDR variant H-3 (antibody, V domains shown) VH: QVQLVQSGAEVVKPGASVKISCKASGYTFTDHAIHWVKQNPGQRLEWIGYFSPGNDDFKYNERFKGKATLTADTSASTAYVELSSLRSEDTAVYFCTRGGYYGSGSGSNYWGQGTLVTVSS VL: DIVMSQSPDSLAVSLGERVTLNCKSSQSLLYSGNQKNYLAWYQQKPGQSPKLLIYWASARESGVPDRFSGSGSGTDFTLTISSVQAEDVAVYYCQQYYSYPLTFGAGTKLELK")
7.3
